All values here come from ChEMBL document CHEMBL1131084.

Measured log10 Ki accompanies every entry in the list below.
- Assayed system: Kappa-type opioid receptor (Rattus norvegicus)
- Sequence (P34975 whole entry): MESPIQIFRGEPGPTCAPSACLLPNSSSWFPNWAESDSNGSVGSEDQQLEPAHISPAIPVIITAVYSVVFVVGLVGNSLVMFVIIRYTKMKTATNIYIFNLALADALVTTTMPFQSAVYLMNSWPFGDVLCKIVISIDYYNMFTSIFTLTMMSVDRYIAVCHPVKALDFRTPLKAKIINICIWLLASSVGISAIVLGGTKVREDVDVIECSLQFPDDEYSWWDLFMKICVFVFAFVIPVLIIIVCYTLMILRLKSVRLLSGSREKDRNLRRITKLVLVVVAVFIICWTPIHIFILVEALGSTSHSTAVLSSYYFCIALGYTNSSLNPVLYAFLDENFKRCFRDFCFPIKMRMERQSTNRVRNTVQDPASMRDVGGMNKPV
- Measurement description: In vitro binding affinity against Opioid receptor kappa 1 in rat brain homogenates.
- Type: tissue-based
Plainly stated, the numbers are log10 of Ki given in nM.

Recorded log10 Ki, per entry:
Q: Provide value of log10 Ki for this record tested with Kappa-type opioid receptor (Rattus norvegicus): O=C(/C=C/c1ccc(Cl)cc1)N[C@@]12CCC(=O)[C@@H]3Oc4c(OCC5CC5)ccc5c4[C@@]31CCN(CC1CC1)[C@@H]2C5
Result: 2.12

Q: One more compound: CCCOc1ccc2c3c1O[C@H]1C(=O)CC[C@@]4(NC(=O)/C=C/c5ccc(Cl)cc5)[C@@H](C2)N(CC2CC2)CC[C@]314
Result: 1.28

Q: Cool, now C#CCOc1ccc2c3c1O[C@H]1C(=O)CC[C@@]4(NC(=O)/C=C/c5ccc(Cl)cc5)[C@@H](C2)N(CC2CC2)CC[C@]314
Result: 1.28

Q: How about this compound: CC(C)Oc1ccc2c3c1O[C@H]1C(=O)CC[C@@]4(NC(=O)/C=C/c5ccc(Cl)cc5)[C@@H](C2)N(CC2CC2)CC[C@]314
Result: 1.17

Q: Moving on to the next compound: C=CCOc1ccc2c3c1O[C@H]1C(=O)CC[C@@]4(NC(=O)/C=C/c5ccc(Cl)cc5)[C@@H](C2)N(CC2CC2)CC[C@]314
Result: 1.25

Q: Also N#CCOc1ccc2c3c1O[C@H]1C(=O)CC[C@@]4(NC(=O)/C=C/c5ccc(Cl)cc5)[C@@H](C2)N(CC2CC2)CC[C@]314 ?
Result: 1.26

Q: Now the same for COC(=O)COc1ccc2c3c1O[C@H]1C(=O)CC[C@@]4(NC(=O)/C=C/c5ccc(Cl)cc5)[C@@H](C2)N(CC2CC2)CC[C@]314
Result: 1.98

***
Q: # get_value(readout= log10 Ki, system= Kappa-type opioid receptor (Rattus norvegicus)) for O=C(/C=C/c1ccc(Cl)cc1)N[C@@]12CCC(=O)[C@@H]3Oc4c(O)ccc5c4[C@@]31CCN(CC1CC1)[C@@H]2C5
Result: 0.73
